Protocol text: Bioavailability of vaginally administered oxytocin, study OXYPEP002
Assay type: in vivo
Details: female, human, blood, 400 IU, 400 IU vaginal; read-out: AUC30-60 min
Measurement label: AUC (ng·h/mL)
One number for each entry, in ng·h/mL.

Fill blank: measured AUC of the molecule CC[C@H](C)[C@@H]1NC(=O)[C@H](Cc2ccc(O)cc2)NC(=O)[C@@H](N)CSSC[C@@H](C(=O)N2CCC[C@H]2C(=O)N[C@@H](CC(C)C)C(=O)NCC(N)=O)NC(=O)[C@H](CC(N)=O)NC(=O)[C@H](CCC(N)=O)NC1=O [oxytocin, Cys-Tyr-Ile-Gln-Asn-Cys-Pro-Leu-Gly-NH2] is ____.
0.362

----------
Protocol text: Bioavailability of vaginally administered oxytocin, study OXYPEP002
Assay type: in vivo
Details: female, human, blood, 400 IU, 400 IU vaginal; residual area alternative ii; read-out: AUCvaginal
Measurement label: AUC (ng·h/mL)
Numbers only, in ng·h/mL.

Record request: AUC value, item CC[C@H](C)[C@@H]1NC(=O)[C@H](Cc2ccc(O)cc2)NC(=O)[C@@H](N)CSSC[C@@H](C(=O)N2CCC[C@H]2C(=O)N[C@@H](CC(C)C)C(=O)NCC(N)=O)NC(=O)[C@H](CC(N)=O)NC(=O)[C@H](CCC(N)=O)NC1=O [oxytocin, Cys-Tyr-Ile-Gln-Asn-Cys-Pro-Leu-Gly-NH2]
1.1

----------
Protocol text: Bioavailability of vaginally administered oxytocin, study OXYPEP002
Assay type: in vivo
Details: female, human, blood; 100 IU vaginal, post-dose; read-out: Average blood oxytocin level, 60 min Visit 2
Measurement label: level at 1 h
Hey, just the number and the unit after it is fine.

Need level at 1 h, item CC[C@H](C)[C@@H]1NC(=O)[C@H](Cc2ccc(O)cc2)NC(=O)[C@@H](N)CSSC[C@@H](C(=O)N2CCC[C@H]2C(=O)N[C@@H](CC(C)C)C(=O)NCC(N)=O)NC(=O)[C@H](CC(N)=O)NC(=O)[C@H](CCC(N)=O)NC1=O [oxytocin, Cys-Tyr-Ile-Gln-Asn-Cys-Pro-Leu-Gly-NH2]
0.12 ng/mL
